TARGET_OR_SYSTEM: T1, Human CD3eg linker (human)
T1 construct: Single-chain construct; also called recombinant human CD3
T1 chain: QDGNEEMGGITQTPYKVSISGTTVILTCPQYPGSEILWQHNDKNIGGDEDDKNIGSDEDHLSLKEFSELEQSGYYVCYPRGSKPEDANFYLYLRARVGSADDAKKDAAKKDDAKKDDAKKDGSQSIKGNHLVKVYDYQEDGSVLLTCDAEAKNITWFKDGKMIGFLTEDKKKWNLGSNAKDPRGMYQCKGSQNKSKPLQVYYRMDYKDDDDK
PROTOCOL_DETAILS: SPR; fold vs parent H183/L072
TEST_READOUT: fold change of affinity (fold)
Answer format: numeric, fold implied, no suffix.

Worked cases, answers included:
BINDER	fold change of affinity / fold
H183/L072 VL Q24H (antibody, name in Kabat numbering, V domains shown) VH: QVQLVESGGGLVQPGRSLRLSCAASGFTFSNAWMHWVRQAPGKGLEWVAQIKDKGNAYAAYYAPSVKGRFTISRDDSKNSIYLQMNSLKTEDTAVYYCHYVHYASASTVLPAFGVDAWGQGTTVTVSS VL: DIVMTQSPLSLPVTPGEPASISCHASQELVHMNRNTYLHWYQQKPGQAPRLLIYKVSNRFPGVPDRFSGSGSGTDFTLKISRVEAEDVGVYYCAQGTSVPFTFGQGTKLEIK	1.1
H183/L072 VL S26D (antibody, name in Kabat numbering, V domains shown) VH: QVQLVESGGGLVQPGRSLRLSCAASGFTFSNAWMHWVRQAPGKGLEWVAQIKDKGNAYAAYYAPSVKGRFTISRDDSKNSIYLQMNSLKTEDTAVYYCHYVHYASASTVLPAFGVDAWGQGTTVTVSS VL: DIVMTQSPLSLPVTPGEPASISCQADQELVHMNRNTYLHWYQQKPGQAPRLLIYKVSNRFPGVPDRFSGSGSGTDFTLKISRVEAEDVGVYYCAQGTSVPFTFGQGTKLEIK	0.8
H183/L072 VL T97M (antibody, name in Kabat numbering, V domains shown) VH: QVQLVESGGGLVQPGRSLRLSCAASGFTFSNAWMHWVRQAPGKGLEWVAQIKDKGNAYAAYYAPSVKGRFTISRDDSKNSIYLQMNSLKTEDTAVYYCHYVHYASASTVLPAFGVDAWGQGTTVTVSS VL: DIVMTQSPLSLPVTPGEPASISCQASQELVHMNRNTYLHWYQQKPGQAPRLLIYKVSNRFPGVPDRFSGSGSGTDFTLKISRVEAEDVGVYYCAQGTSVPFMFGQGTKLEIK	0.7

Ask: Consider the binder shown here: H183/L072 VL Q27S (antibody, name in Kabat numbering, V domains shown) VH: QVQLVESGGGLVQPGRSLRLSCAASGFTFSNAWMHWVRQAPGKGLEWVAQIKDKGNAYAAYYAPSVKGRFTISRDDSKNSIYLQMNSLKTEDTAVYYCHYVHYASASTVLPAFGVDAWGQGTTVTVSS VL: DIVMTQSPLSLPVTPGEPASISCQASSELVHMNRNTYLHWYQQKPGQAPRLLIYKVSNRFPGVPDRFSGSGSGTDFTLKISRVEAEDVGVYYCAQGTSVPFTFGQGTKLEIK What is its recorded fold change of affinity?
Reply: 1.1

Ask: Consider the binder shown here: H183/L072 VL V27cQ (antibody, name in Kabat numbering, V domains shown) VH: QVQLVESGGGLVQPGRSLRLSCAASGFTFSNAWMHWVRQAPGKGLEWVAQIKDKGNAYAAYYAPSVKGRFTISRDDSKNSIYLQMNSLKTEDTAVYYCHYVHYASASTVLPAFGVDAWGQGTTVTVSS VL: DIVMTQSPLSLPVTPGEPASISCQASQELQHMNRNTYLHWYQQKPGQAPRLLIYKVSNRFPGVPDRFSGSGSGTDFTLKISRVEAEDVGVYYCAQGTSVPFTFGQGTKLEIK What is its recorded fold change of affinity?
Reply: 1
